experiment: T. cruzi intracellular proliferation inhibitors, primary screen, cell-based, beta-gal Tulahuen parasites, NIH3T3 host, luminescence (AID 624255); conditions: T. cruzi beta-gal in NIH3T3, GalScreen luminescence, 90 h; at 8.34 µM; hits give high values
Hit rate of the full screen: of about 77,000 compounds, about 4,600 (6%) were called active. About 1% were inconclusive and are not listed. For the sample, actives were picked, then their nearest neighbours and some compounds at random.
Would you kindly list inhibition for each of these compounds?
Please give a number only; it is taken to be in %.

// query Name the recorded inhibition of the item C[C@@H]1CN([C@H](C)CO)C(=O)c2cccc(NC(=O)c3cnccn3)c2O[C@@H]1CN(C)Cc1ccc(C(=O)Nc2ccccc2N)cc1 in your answer.
// result 109

// query Answer with the recorded inhibition for the compound listed here: O=C([C@H]1[C@H](CO)[C@H]2Cn3c(ccc(C4=CCCCC4)c3=O)[C@@H]1N2)N1CCCCC1
// result 60.4

// query Return the recorded inhibition value; entry: C[C@@H]1CN([C@@H](C)CO)C(=O)CCCn2nncc2CO[C@@H]1CN(C)Cc1ccccc1
// result -1.5

// query Check the records and state inhibition for C[C@@H]1CN([C@H](C)CO)C(=O)CCCn2nncc2CO[C@@H]1CN(C)Cc1ccc(C(=O)Nc2ccccc2N)cc1
// result 103

###

So I've got a bunch of compounds here, and I need their inhibition values.
assay: T. cruzi intracellular proliferation inhibitors, primary screen, cell-based, beta-gal Tulahuen parasites, NIH3T3 host, luminescence (AID 624255); details: T. cruzi beta-gal in NIH3T3, GalScreen luminescence, 90 h; at 8.34 µM; hits give high values
Out of some 77,000 compounds screened, about 4,600 (6%) were called active. Another 1% or so got no clear call; they are omitted. The sample holds actives, similar compounds and a random draw of the others, so the mix is not that of the screen.
Provide the reading as a plain figure in %.

// query Provide inhibition value for the following compound: C[C@@H]1CCCCO[C@H](CN(C)C(=O)Nc2cccc3ccccc23)[C@H](C)CN([C@H](C)CO)C(=O)c2cc(NS(=O)(=O)c3cccs3)ccc2O1
// result 115

// query Return reported inhibition. Input compound: C[C@@H]1CCCCO[C@H](CN(C)C(=O)Cc2ccccc2)[C@@H](C)CN([C@@H](C)CO)C(=O)c2cc(NC(=O)c3ccccc3)ccc2O1
// result 46.7

// query Indicate the recorded inhibition value for this compound: C[C@H]1CN([C@@H](C)CO)C(=O)c2cc(-c3cccc(F)c3)cnc2O[C@@H]1CN(C)S(C)(=O)=O
// result 36.8

// query Give the measured inhibition for Cc1noc(C)c1NC(=O)Nc1ccc2c(c1)C(=O)N([C@H](C)CO)C[C@@H](C)[C@H](CN(C)C(=O)Nc1cccc3ccccc13)OCCCC[C@@H](C)O2
// result 80.3

// query Return inhibition for the following compound: Cc1noc(C)c1NC(=O)Nc1ccc2c(c1)C(=O)N([C@H](C)CO)C[C@@H](C)[C@H](CN(C)S(=O)(=O)c1ccc(Cl)cc1)OCCCC[C@H](C)O2
// result 53.3

// query Answer with reported inhibition of O=C(NCC1CC1)[C@@H]1[C@@H](CO)[C@@H]2Cn3c(ccc(-c4ccncc4)c3=O)[C@H]1N2Cc1nccs1
// result 32.5

// query For C[C@H](CO)N1C[C@H](C)[C@H](CN(C)S(=O)(=O)c2ccccc2)Oc2ncc(-c3cccc(C(F)(F)F)c3)cc2C1=O , write its inhibition.
// result 118

// query Tell me inhibition reported for O=C([C@@H]1[C@@H](CO)[C@@H]2Cn3c(ccc(-c4ccccc4F)c3=O)[C@H]1N2C(=O)C1CCC1)N1CCCCC1
// result -49

// query Supply reported inhibition belonging to this compound: C[C@@H]1CCCCO[C@@H](CN(C)C(=O)Nc2cccc3ccccc23)[C@@H](C)CN([C@H](C)CO)C(=O)c2cc(NS(C)(=O)=O)ccc2O1
// result -3.68

// query Specify reported inhibition for the compound shown: C[C@@H]1CCCCO[C@H](CN(C)C(=O)Nc2cccc3ccccc23)[C@@H](C)CN([C@H](C)CO)C(=O)c2cc(NS(=O)(=O)c3cccs3)ccc2O1
// result 87.5

// query Give me measured inhibition, please, for this compound: O=C(C[C@@H]1CC[C@H]2[C@@H](COC[C@H](O)CN2S(=O)(=O)c2ccc(F)cc2)O1)N[C@H]1CCN(Cc2ccccc2)C1
// result 67.7

// query State its inhibition for this compound: CO[C@@H]1CN(C)C(=O)c2ccc(NS(=O)(=O)c3cn(C)cn3)cc2OC[C@H](C)N(CCC(F)(F)F)C[C@@H]1C
// result 40.1

// query Determine from records and report inhibition for Cc1noc(C)c1S(=O)(=O)Nc1ccc2c(c1)C(=O)N([C@@H](C)CO)C[C@@H](C)[C@H](CN(C)C(=O)Nc1cccc3ccccc13)O2
// result -148
